# TEST SYSTEM: recombinant human NF-kappaB-inducing kinase (NIK/MAP3K14) (Homo sapiens, UniProt Q99558)
# Sequence (Q99558 whole entry): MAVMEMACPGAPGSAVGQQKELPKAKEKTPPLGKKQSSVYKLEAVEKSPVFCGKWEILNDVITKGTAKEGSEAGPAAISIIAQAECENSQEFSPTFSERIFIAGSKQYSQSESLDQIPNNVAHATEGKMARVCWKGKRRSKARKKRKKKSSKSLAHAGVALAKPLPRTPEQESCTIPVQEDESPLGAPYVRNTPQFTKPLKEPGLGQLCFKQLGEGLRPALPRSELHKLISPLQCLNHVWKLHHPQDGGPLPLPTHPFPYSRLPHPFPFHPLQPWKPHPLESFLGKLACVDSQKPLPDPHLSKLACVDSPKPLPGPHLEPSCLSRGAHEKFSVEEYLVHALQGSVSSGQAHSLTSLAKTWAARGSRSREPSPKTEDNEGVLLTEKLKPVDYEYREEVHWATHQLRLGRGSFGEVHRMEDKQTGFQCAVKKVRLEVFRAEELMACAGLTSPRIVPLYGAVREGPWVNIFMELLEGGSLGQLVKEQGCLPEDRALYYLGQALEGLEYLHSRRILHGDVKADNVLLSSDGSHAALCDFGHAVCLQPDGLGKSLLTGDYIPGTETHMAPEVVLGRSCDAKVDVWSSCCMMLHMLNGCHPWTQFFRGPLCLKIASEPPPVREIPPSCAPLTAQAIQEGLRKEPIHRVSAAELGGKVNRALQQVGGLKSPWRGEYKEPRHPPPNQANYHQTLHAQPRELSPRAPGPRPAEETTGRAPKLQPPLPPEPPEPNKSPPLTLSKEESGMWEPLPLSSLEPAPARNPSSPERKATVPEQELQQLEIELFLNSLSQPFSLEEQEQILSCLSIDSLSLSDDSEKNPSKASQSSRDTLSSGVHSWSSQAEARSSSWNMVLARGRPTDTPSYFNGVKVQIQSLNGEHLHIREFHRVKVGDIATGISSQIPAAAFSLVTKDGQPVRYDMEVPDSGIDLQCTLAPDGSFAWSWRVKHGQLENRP
# ASSAY DETAILS: Inhibition of auto-phosphorylation of recombinant human NIK/MAP3K14 activity (AlphaScreen), Biological Assay A
# Assay type: biochemical
# CONDITION CONTEXT: averaged values over all measurements on all batches
OBSERVED PROPERTY: IC50 (nM)

Sample answers from the record:
molecule="Cc1c(Nc2nccc(-c3cc(C#N)c4c(c3)C(C)(CO)CN4)n2)cc(Cl)cc1C(=O)N(C)C (centres unmarked) [Compound 53]" measured_number=3.6
molecule="Cc1ccc(C#N)cc1Nc1nccc(-c2cc(C#N)c3c(c2)[C@@](C)(COC(=O)CC(=O)O)CN3)n1 [Compound 142b]" measured_number=17
molecule="CC(C)Oc1cc(P(C)(C)=O)ccc1Nc1nccc(-c2cc(C#N)c3c(c2)[C@@](C)(CO)CN3)n1 [Compound 18]" measured_number=2.6
molecule="Cc1cc(-c2cnn(C)c2)c(C#N)cc1Nc1nccc(-c2cc(C#N)c3c(c2)[C@@](C)(CO)CN3)n1 [Compound 188]" measured_number=2.6
molecule="CC(=O)NCCCCc1ccc(C#N)cc1Nc1nccc(-c2cc(C#N)c3c(c2)[C@@](C)(CO)CN3)n1 [Compound 185]" measured_number=6.5

A = COCCOc1ccc(Cl)cc1Nc1nccc(-c2cc(C#N)c3c(c2)C(C)(C)CN3)n1 [Compound 100]
B = Cc1c(Nc2nccc(-c3cc(C#N)c4c(c3)[C@@](C)(CO)CN4)n2)cccc1C(=O)N1CCN(C2COC2)CC1 [Compound 207]
C = CC1(C)CNc2c(C#N)cc(-c3ccnc(Nc4ccccc4C(=O)N4CCC(O)C4)n3)cc21 (centres unmarked) [Compound 111]
D = C[C@]1(CO)CNc2c(C#N)cc(-c3ccnc(Nc4cc(C#N)ccc4C4CC4)n3)cc21 [Compound 71]
Problem: Order field: IC50 | Direction: descending (largest first) // list labels; follow requested order
Solution: C, A, D, B
